ASSAY_NAME: Determination of Bioavailability, stomach (oral gavage) v. intraduodenal administration
Type: in vivo, Rats
SETTINGS: rat, plasma, po, 20 mg/kg, 20 mg/kg in 15% cyclodextrin, Experiment 2

| COMPOUND | AUC (ng·h/mL) |
| --- | --- |
| CC(C)(C=C(C#N)C(=O)N1CCC[C@H]1Cn1nc(-c2ccc(Oc3ccccc3)cc2F)c2c(N)ncnc21)N1CCOCC1 [Cpd 95B] | 647 |

----------
ASSAY_NAME: Determination of Bioavailability, stomach (oral gavage) v. intraduodenal administration
Assay type: in vivo, Rats
SETTINGS: rat, plasma, 20 mg/kg, ID (intra-duodenal), 20 mg/kg in 15% cyclodextrin, Experiment 2
ATTRIBUTE_MEASURED: Cmax (ng/mL)

| MOLECULE | MEASURED |
| --- | --- |
| CC(C)(C=C(C#N)C(=O)N1CCC[C@H]1Cn1nc(-c2ccc(Oc3ccccc3)cc2F)c2c(N)ncnc21)N1CCOCC1 [Cpd 95B] | 1650 |

----------
ASSAY_NAME: Determination of Bioavailability, stomach (oral gavage) v. intraduodenal administration
Assay type: in vivo, Rats
SETTINGS: rat, plasma, 20 mg/kg, bioavailability, ID (intra-duodenal), 20 mg/kg in 15% cyclodextrin, Experiment 1
Protocol: Rats with surgically implanted intra-duodenal catheters were obtained commercially. […] Blood was withdrawn at time points out to 24 hours and compound quantitated via LC/MS/MS to obtain plasma concentrations. PK parameters were calculated via commercially available software and measures of exposure were used to assess differences in dosing routes. The table below summarizes exposures as measured by area under the curve (AUC), concentration at its maximum (Cmax), and bioavailability.

| MOLECULE | bioavailability, % |
| --- | --- |
| CC(C)(C=C(C#N)C(=O)N1CCC[C@H]1Cn1nc(-c2ccc(Oc3ccccc3)cc2F)c2c(N)ncnc21)N1CCOCC1 [Cpd 95B] | 27 |

----------
ASSAY_NAME: Determination of Bioavailability, stomach (oral gavage) v. intraduodenal administration
Assay type: in vivo, Rats
SETTINGS: rat, plasma, 100 mg/kg, bioavailability, ID 100 mg/kg, 0.5% xanthum gum suspension
ATTRIBUTE_MEASURED: bioavailability

| COMPOUND | ATTRIBUTE_MEASURED | MEASURED |
| --- | --- | --- |
| CC(C)(C=C(C#N)C(=O)N1CCC[C@H]1Cn1nc(-c2ccc(Oc3ccccc3)cc2F)c2c(N)ncnc21)N1CCOCC1 [Cpd 95B] | bioavailability | 16.3% |

----------
ASSAY_NAME: Determination of Bioavailability, stomach (oral gavage) v. intraduodenal administration
Type: in vivo, Rats
SETTINGS: rat, plasma, po, 100 mg/kg, PO 100 mg/kg, 0.5% xanthum gum suspension
ATTRIBUTE_MEASURED: AUC (ng·h/mL)

| MOLECULE | OUTPUT_UNIT | MEASURED |
| --- | --- | --- |
| CC(C)(C=C(C#N)C(=O)N1CCC[C@H]1Cn1nc(-c2ccc(Oc3ccccc3)cc2F)c2c(N)ncnc21)N1CCOCC1 [Cpd 95B] | ng·h/mL | 858 |

----------
ASSAY_NAME: Determination of Bioavailability, stomach (oral gavage) v. intraduodenal administration
Type: in vivo, Rats
SETTINGS: rat, plasma, po, 100 mg/kg, bioavailability, PO 100 mg/kg, 0.5% xanthum gum suspension
Method: Rats with surgically implanted intra-duodenal catheters were obtained commercially. […] Blood was withdrawn at time points out to 24 hours and compound quantitated via LC/MS/MS to obtain plasma concentrations. PK parameters were calculated via commercially available software and measures of exposure were used to assess differences in dosing routes. The table below summarizes exposures as measured by area under the curve (AUC), concentration at its maximum (Cmax), and bioavailability.

| MOLECULE | bioavailability [%] |
| --- | --- |
| CC(C)(C=C(C#N)C(=O)N1CCC[C@H]1Cn1nc(-c2ccc(Oc3ccccc3)cc2F)c2c(N)ncnc21)N1CCOCC1 [Cpd 95B] | 7.4 |

----------
// reported log10 IC50 for each item listed
SYSTEM_NAME: human recombinant Btk (Homo sapiens, UniProt Q06187)
Sequence (Q06187 whole entry): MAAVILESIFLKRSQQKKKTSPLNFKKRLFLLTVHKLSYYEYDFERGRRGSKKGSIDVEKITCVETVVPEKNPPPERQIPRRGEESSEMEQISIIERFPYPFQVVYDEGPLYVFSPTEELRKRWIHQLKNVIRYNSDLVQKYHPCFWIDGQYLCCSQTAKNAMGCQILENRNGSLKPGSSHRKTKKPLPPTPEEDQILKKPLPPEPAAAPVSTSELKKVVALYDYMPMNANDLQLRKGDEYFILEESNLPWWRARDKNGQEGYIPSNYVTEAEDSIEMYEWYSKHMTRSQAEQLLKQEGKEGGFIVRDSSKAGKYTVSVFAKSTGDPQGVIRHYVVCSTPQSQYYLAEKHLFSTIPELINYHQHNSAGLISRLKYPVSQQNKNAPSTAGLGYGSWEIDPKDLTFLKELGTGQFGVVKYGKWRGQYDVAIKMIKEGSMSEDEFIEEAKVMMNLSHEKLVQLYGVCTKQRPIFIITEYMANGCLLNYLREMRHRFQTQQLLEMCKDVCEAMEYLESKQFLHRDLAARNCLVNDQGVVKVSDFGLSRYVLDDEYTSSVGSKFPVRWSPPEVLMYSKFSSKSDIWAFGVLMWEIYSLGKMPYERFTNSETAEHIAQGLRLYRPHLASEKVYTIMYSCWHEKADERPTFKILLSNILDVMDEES
ASSAY_NAME: Btk Enzymatic Activity Assay (Caliper-based kinase assay)
SETTINGS: human recombinant Btk 2 nM, ATP 40 uM, peptide substrate 1 uM, room temperature, 3 h
ATTRIBUTE_MEASURED: log10 IC50 (log10 of the value in nM)

| COMPOUND | ATTRIBUTE_MEASURED | MEASURED |
| --- | --- | --- |
| C[C@@H](Cn1nc(-c2ccc(Oc3ccccc3)cc2F)c2c(N)ncnc21)NC(=O)C(C#N)=CC(C)(C)N [Cpd 195] | log10 IC50 | 0.78 |
| CC(C)(C)C=C(C#N)C(=O)N1CCC(n2nc(-c3ccc(Oc4ccccc4)cc3)c3c(N)ncnc32)CC1 [Cpd 8] | log10 IC50 | 2.11 |
| CC(C)(C)C=C(C#N)C(=O)N1CCCC1Cn1nc(-c2ccc(Oc3ccccc3)cc2)c2c(N)ncnc21 (centres unmarked) [Cpd 10] | log10 IC50 | 0.73 |
| CNC(C)(C)C=C(C#N)C(=O)N1CCC[C@@H]1Cn1nc(C2(Oc3ccccc3)C=CC=CC2F)c2c(N)ncnc21 (some centres unmarked) [Cpd 83A] | log10 IC50 | 0.15 |
| CC(C)C=C(C#N)C(=O)N1CCC[C@H]1Cn1nc(-c2ccc(Oc3cccc(F)c3F)cc2F)c2c(N)ncnc21 [Cpd 102B] | log10 IC50 | 0.78 |
| CNC(C)(C)C=C(C#N)C(=O)N1CCC[C@H]1Cn1nc(-c2ccc(Oc3cccc(F)c3F)cc2F)c2c(N)ncnc21 [Cpd 105B] | log10 IC50 | 1.41 |
| N#CC(=CC1(N)CC1)C(=O)N1CCC[C@@H]1Cn1nc(-c2ccc(Oc3ccccc3)cc2F)c2c(N)ncnc21 [Cpd 90A] | log10 IC50 | 1.72 |
| COc1cc(-c2nn(CC3CCCN3C(=O)C(C#N)=CC3CC3)c3ncnc(N)c23)ccc1Oc1ccc(Cl)c(Cl)c1 (centres unmarked) [Cpd 5] | log10 IC50 | 0.00 |
| CC(C)(C)C=C(C#N)C(=O)N1CCC[C@H]1Cn1cc(-c2ccc(Oc3cccc(F)c3F)cc2)c2c(N)ncnc21 [Cpd 173B] | log10 IC50 | 1.53 |
| N#CC(=CC1CC1)C(=O)N1CCC[C@H]1Cn1nc(-c2ccc(Oc3c(F)cccc3F)cc2F)c2c(N)ncnc21 [Cpd 44B] | log10 IC50 | 0.48 |
| N#CC(=CC1CC1)C(=O)N1CCCC1Cn1nc(-c2ccc(Oc3ccccc3)cc2)c2c(N)ncnc21 (centres unmarked) [Cpd 2] | log10 IC50 | 0.57 |

----------
ASSAY_NAME: Determination of Bioavailability, stomach (oral gavage) v. intraduodenal administration
Type: in vivo, Rats
SETTINGS: rat, plasma, 20 mg/kg, ID (intra-duodenal), 20 mg/kg in 15% cyclodextrin, Experiment 1
ATTRIBUTE_MEASURED: Cmax (ng/mL)

| COMPOUND | MEASURED |
| --- | --- |
| CC(C)(C=C(C#N)C(=O)N1CCC[C@H]1Cn1nc(-c2ccc(Oc3ccccc3)cc2F)c2c(N)ncnc21)N1CCOCC1 [Cpd 95B] | 1400 |

----------
ASSAY_NAME: Determination of Bioavailability, stomach (oral gavage) v. intraduodenal administration
Assay type: in vivo, Rats
SETTINGS: rat, plasma, po, 20 mg/kg, bioavailability, 20 mg/kg in 15% cyclodextrin, Experiment 1

| MOLECULE | bioavailability (%) |
| --- | --- |
| CC(C)(C=C(C#N)C(=O)N1CCC[C@H]1Cn1nc(-c2ccc(Oc3ccccc3)cc2F)c2c(N)ncnc21)N1CCOCC1 [Cpd 95B] | 6.6 |

----------
ASSAY_NAME: Determination of Bioavailability, stomach (oral gavage) v. intraduodenal administration
Assay type: in vivo, Rats
SETTINGS: rat, plasma, 100 mg/kg, ID 100 mg/kg, 0.5% xanthum gum suspension
ATTRIBUTE_MEASURED: Cmax (ng/mL)

| COMPOUND | ATTRIBUTE_MEASURED | MEASURED |
| --- | --- | --- |
| CC(C)(C=C(C#N)C(=O)N1CCC[C@H]1Cn1nc(-c2ccc(Oc3ccccc3)cc2F)c2c(N)ncnc21)N1CCOCC1 [Cpd 95B] | Cmax | 870 |

----------
ASSAY_NAME: Determination of Bioavailability, stomach (oral gavage) v. intraduodenal administration
Type: in vivo, Rats
SETTINGS: rat, plasma, po, 20 mg/kg, 20 mg/kg in 15% cyclodextrin, Experiment 2

| MOLECULE | Cmax [ng/mL] |
| --- | --- |
| CC(C)(C=C(C#N)C(=O)N1CCC[C@H]1Cn1nc(-c2ccc(Oc3ccccc3)cc2F)c2c(N)ncnc21)N1CCOCC1 [Cpd 95B] | 406 |
